Source listed as patent US11083196B2.

System: Glomerella lagenarium (Colletotrichum lagenarium)
assay.comment: Fungicidal activity against Glomerella lagenarium (Colletotrichum lagenarium), liquid culture / cucumber / preventative (anthracnose)
Type: cell-based
conditions: Colletotrichum orbiculare, liquid culture (PDB), growth inhibition measured photometrically 3-4 days after application, compared to untreated control
# inhibition of growth at 20 ppm listing for each entry below

compound | system.name | inhibition of growth at 20 ppm
Cc1cc(C)n(-c2ccc(-c3noc(C(F)(F)F)n3)cc2)n1 [Compound E-1] | Glomerella lagenarium (Colletotrichum lagenarium) | ≥ 80%

Note to self: inhibition of growth at 20 ppm recorded for FC(F)(F)c1nc(-c2ccc(C3CC(c4ccncc4)=NO3)cc2)no1 (centres unmarked) [Compound A-49] was ≥ 80%

Sample O=C(Nc1cc(-c2ccc(-c3noc(C(F)(F)F)n3)cc2)ccn1)C(F)(F)F [Compound D-19] ; inhibition of growth at 20 ppm observed: ≥ 80%

// field: inhibition of growth at 20 ppm; key: Fc1cccc(-c2ccc(-c3noc(C(F)(F)F)n3)cc2)n1 [Compound D-5] ; value = ≥ 80%
